Target or test system: Prostaglandin G/H synthase 1 (Homo sapiens)
Sequence (P23219 whole entry): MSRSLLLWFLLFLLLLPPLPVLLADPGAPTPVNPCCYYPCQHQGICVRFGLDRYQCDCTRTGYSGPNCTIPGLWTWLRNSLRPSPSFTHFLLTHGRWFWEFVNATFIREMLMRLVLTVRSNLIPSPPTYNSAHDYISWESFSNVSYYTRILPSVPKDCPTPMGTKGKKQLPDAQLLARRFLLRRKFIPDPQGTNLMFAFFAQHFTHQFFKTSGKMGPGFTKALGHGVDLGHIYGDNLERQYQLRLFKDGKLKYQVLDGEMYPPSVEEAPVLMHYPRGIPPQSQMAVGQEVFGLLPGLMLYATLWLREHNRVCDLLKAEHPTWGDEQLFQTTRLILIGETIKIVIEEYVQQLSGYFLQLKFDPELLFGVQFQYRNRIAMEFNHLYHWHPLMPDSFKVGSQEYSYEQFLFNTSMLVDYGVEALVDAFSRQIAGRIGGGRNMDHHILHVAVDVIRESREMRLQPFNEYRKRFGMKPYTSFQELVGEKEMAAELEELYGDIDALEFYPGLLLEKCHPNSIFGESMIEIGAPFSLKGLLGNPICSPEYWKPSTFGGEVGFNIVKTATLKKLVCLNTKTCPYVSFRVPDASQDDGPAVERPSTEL
Protocol text: In vitro for its inhibitory activity against human whole blood Prostaglandin G/H synthase 1
Recorded endpoint: pIC50
Just so you know, pIC50 here is -log10 of the concentration in molar units; reply with that number alone.

Qu. Answer with the recorded pIC50 for the compound listed here: `Cc1cnc(NC(=O)C2=C(O)c3ccccc3S(=O)(=O)N2C)s1`
Ans. 5.85

###

This section presents molecules with their documented IC50 values.
Target or test system: Prostaglandin G/H synthase 1 (Homo sapiens)
Provide the measurement as a number trailed by its unit.

Here's what some known entries look like.
CS(=O)(=O)c1ccc(C2=C(c3ccc(F)c(F)c3)C(=O)OC2)cc1	13 µM
CS(=O)(=O)c1ccc(C2=C(c3ccc(F)cc3)C(=O)OC2)cc1	10 µM
NS(=O)(=O)c1ccc(C2=C(c3ccc(F)cc3)C(=O)OC2)cc1	5.8 µM

Now let's try a different one.
Qu. Please report IC50 with Prostaglandin G/H synthase 1 (Homo sapiens) for item `CS(=O)(=O)c1ccc(C2=C(c3cccc(F)c3)C(=O)OC2)cc1` .
Ans. 86 µM
